- Test system: THP-1 cells
- EXPERIMENTAL_PROTOCOL: TNFα generation assay
- Assay type: cell-based, human
- CONDITION_DESCRIPTION: Homo sapiens, THP-1, THP-1 cells; Table 22; read-out: IC50 in TNFα generation assay
Consider the following compounds; for each one, report its IC50.

COc1cc(Nc2nc(N[C@@H](CN)c3ccccc3)c(F)cc2C(N)=O)ccn1; 130 to 200 nM
CC(C)C[C@H](CN)Nc1nc(Nc2cncc(C3CC3)c2)c(C(N)=O)cc1F; 65 to 130 nM
CC(C)C[C@H](CN)Nc1nc(Nc2ccnc(-n3cncn3)c2)c(C(N)=O)cc1F; < 65 nM

Now consider a different compound.
Sample `CCC[C@@H](Nc1nc(Nc2ccc3nc(C)cnc3c2)c(C(N)=O)cc1F)[C@H](C)N` , system: THP-1 cells. Its IC50 is 65 to 130 nM

---

- SYSTEM: glutathione S-transferase (GST)-fused full-length human Syk protein (Homo sapiens, UniProt P43405)
- Construct: (GST)-fused full-length human Syk protein; GST (glutathione S-transferase); purchased Carna Biosciences
- EXPERIMENTAL_PROTOCOL: Syk enzyme assay
- Type: biochemical
- CONDITION_DESCRIPTION: Syk enzyme assay, Test Example 1; read-out: IC50 of Syk-inhibitory activity
pIC50: −log10 of the molar value.
Consider the following compounds; for each one, report its pIC50.

NC(=O)c1cc(F)c(NCC2CCCCN2)nc1Nc1ccc2ncccc2c1 (stereo not shown); 6.00 to 7.00
NC(=O)c1cc(F)c(NC2CCCCC2N)nc1Nc1cncc(-c2cccc3cccnc23)c1 (stereo not shown); 7.00 to 7.30

// for each compound in input: emit pIC50
1. CCC[C@@H](Nc1nc(Nc2cncc(-c3cccc(OC)c3)c2)c(C(N)=O)cc1F)[C@H](C)N
2. NC(=O)c1cc(F)c(NC2CCCCC2N)nc1Nc1cncc(NC(=O)c2cc3ccccc3o2)c1 (stereo not shown)

Solution:
["> 8.00", "> 8.00"]

---

Consider the following compounds; for each one, report its IC50.
- SYSTEM: glutathione S-transferase (GST)-fused full-length human Syk protein (Homo sapiens)
- Construct: (GST)-fused full-length human Syk protein; GST (glutathione S-transferase); purchased Carna Biosciences
- EXPERIMENTAL_PROTOCOL: Syk enzyme assay
- Format: biochemical
- CONDITION_DESCRIPTION: Syk enzyme assay, Test Example 1; read-out: IC50 of Syk-inhibitory activity

Example entries and their recorded answers appear below.
NCCNCCNc1nc(Nc2ccnc(-n3cncn3)c2)c(C(N)=O)cc1F; 0.1 to 1 µM
CNC(=O)c1cc2c(Nc3nc(NC4CCCCC4N)c(F)cc3C(N)=O)ccnc2n1C (stereo not drawn); 0.01 to 0.05 µM
NC(=O)c1cc(F)c(N[C@@H]2CCCC[C@@H]2N)nc1Nc1ccc2ncncc2c1 (relative stereo); < 0.01 µM
COc1cccc(-c2cc(Nc3nc(NC4CCCCC4N)c(F)cc3C(N)=O)ccn2)c1 (stereo not drawn); < 0.01 µM
NC(=O)c1cc(F)c(NC2CCCCC2N)nc1Nc1ccc(N2CCCC2=O)nc1 (stereo not drawn); 0.05 to 0.1 µM
CC(C)C[C@H](CN)Nc1nc(Nc2cncc(-c3ccccc3)c2)c(C(N)=O)cc1F; 0.01 to 0.05 µM
CCCC[C@H](CN)Nc1nc(Nc2cncc(-n3cccn3)c2)c(C(N)=O)cc1F; 0.01 to 0.05 µM
COc1nn(C)c2ccc(Nc3nc(N[C@@H]4CCCC[C@@H]4N)c(F)cc3C(N)=O)cc12; < 0.01 µM

// for each compound in input: emit IC50
1. CCc1cncc(Nc2nc(NC3CCCCC3N)c(F)cc2C(N)=O)c1 (stereo not drawn)
2. CCC[C@@H](Nc1nc(Nc2ccc3c(cnn3CCOC)c2)c(C(N)=O)cc1F)[C@H](C)N
3. COC[C@@H](Nc1nc(Nc2ccc3ncccc3c2)c(C(N)=O)cc1F)[C@H](C)N
4. NC(=O)c1cc(F)c(N[C@@H]2CCCC[C@@H]2N)nc1Nc1cncc2cccnc12
5. CC(C)C[C@H](CN)Nc1nc(Nc2cncc(Cl)c2)c(C(N)=O)cc1F
6. CCCCOCCOc1ccc2cc(Nc3nc(NC4CCCCC4N)c(F)cc3C(N)=O)ccc2n1 (stereo not drawn)
7. CCOc1nn(CC)c2ccc(Nc3nc(N[C@@H]4CCCC[C@@H]4N)c(F)cc3C(N)=O)cc12

Solution:
["< 0.01 µM", "< 0.01 µM", "< 0.01 µM", "0.01 to 0.05 µM", "< 0.01 µM", "0.01 to 0.05 µM", "< 0.01 µM"]

// for each compound in input: emit IC50
1. NC(=O)c1cc(F)c(NC2CCCCC2N)nc1Nc1ccc(NCCO)nc1 (stereo not drawn)
2. CCC[C@@H](Nc1nc(Nc2ccc3c(cnn3CCOC)c2)c(C(N)=O)cc1F)[C@@H](N)CC
3. NC(=O)c1cc(F)c(N[C@@H]2CCCC[C@@H]2N)nc1Nc1cncc(-n2cccn2)c1 (relative stereo) [Example 006-129]
4. Cc1nn(CC(F)F)c2ccc(Nc3nc(N[C@H](CC(C)C)[C@H](C)N)c(F)cc3C(N)=O)cc12
5. CCn1ncc2cc(Nc3nc(N[C@H](c4ccc(F)cc4)[C@H](C)N)c(F)cc3C(N)=O)ccc21

Solution:
1. 0.01 to 0.05 µM
2. < 0.01 µM
3. < 0.01 µM
4. < 0.01 µM
5. < 0.01 µM

---

- SYSTEM: glutathione S-transferase (GST)-fused full-length human Syk protein (Homo sapiens)
- Construct: (GST)-fused full-length human Syk protein; GST (glutathione S-transferase); purchased Carna Biosciences
- EXPERIMENTAL_PROTOCOL: Syk enzyme assay
- Format: biochemical
- CONDITION_DESCRIPTION: Syk enzyme assay, Test Example 1; read-out: IC50 of Syk-inhibitory activity
pIC50: −log10 of the molar value.
Consider the following compounds; for each one, report its pIC50.

NC(=O)c1cc(F)c(NC2CCCCC2N)nc1Nc1cncc(-n2cncn2)c1 (stereo not shown); > 8.00
NC(=O)c1cc(F)c(N[C@@H]2CCCC[C@@H]2N)nc1Nc1cnc(-n2cccn2)c(-n2nccn2)c1; 7.00 to 7.30
NC(=O)c1cc(F)c(NCc2ccncc2)nc1Nc1ccc2ncccc2c1; 6.00 to 7.00

Now consider a different compound.
Sample NC(=O)c1cc(F)c(N[C@@H]2CCCC[C@@H]2N)nc1Nc1cc(N)c2ncccc2c1 (relative stereo) , system: glutathione S-transferase (GST)-fused full-length human Syk protein (Homo sapiens). Its pIC50 is > 8.00

---

Consider the following compounds; for each one, report its IC50.
- System: THP-1 cells
- EXPERIMENTAL_PROTOCOL: TNFα generation assay
- Assay type: cell-based, human
- CONDITION_DESCRIPTION: Homo sapiens, THP-1, THP-1 cells; Table 22; read-out: IC50 in TNFα generation assay

// for each compound in input: emit IC50
1. C[C@H](N)[C@H](Nc1nc(Nc2ccc3c(cnn3C)c2)c(C(N)=O)cc1F)C1CC1
2. CC[C@@H](Nc1nc(Nc2ccc3ncccc3c2)c(C(N)=O)cc1F)[C@H](C)N
3. CC(C)C[C@@H](Nc1nc(Nc2cncc(C3CC3)c2)c(C(N)=O)cc1F)[C@H](C)N
4. NC(=O)c1cc(F)c(N[C@@H]2CCCC[C@@H]2N)nc1Nc1cccnc1 (relative stereo)

Solution:
1: < 65 nM; 2: < 65 nM; 3: 130 to 200 nM; 4: 65 to 130 nM

---

Consider the following molecules; for each one, report its pIC50.
- SYSTEM: glutathione S-transferase (GST)-fused full-length human Syk protein (Homo sapiens, UniProt P43405)
- Construct: (GST)-fused full-length human Syk protein; GST (glutathione S-transferase); purchased Carna Biosciences
- EXPERIMENTAL_PROTOCOL: Syk enzyme assay
- Assay type: biochemical
- CONDITION_DESCRIPTION: Syk enzyme assay, Test Example 1; read-out: IC50 of Syk-inhibitory activity
pIC50: −log10 of the molar value.

// for each molecule in input: emit pIC50
1. CCC[C@@H](Nc1nc(Nc2ccnc(-c3ccc(OC)cc3F)c2)c(C(N)=O)cc1F)[C@H](C)N
2. Cc1ccc(-c2cncc(Nc3nc(N[C@@H]4CCCC[C@@H]4N)c(F)cc3C(N)=O)c2)cc1 (relative stereo)

Solution:
1. > 8.00
2. > 8.00

// for each molecule in input: emit pIC50
1. CCC[C@@H](Nc1nc(Nc2cnc3ccc(OC)cc3c2)c(C(N)=O)cc1F)[C@H](C)N
2. CC[C@@H](Nc1nc(Nc2cccc3c2cnn3CC)c(C(N)=O)cc1F)[C@H](C)N

Solution:
["> 8.00", "> 8.00"]

// for each molecule in input: emit pIC50
1. COc1ccc2ccc(Nc3nc(NC4CCCCC4N)c(F)cc3C(N)=O)cc2n1 (stereo not drawn)
2. COCC(C)Oc1ncc(Nc2nc(N[C@@H]3CCCC[C@@H]3N)c(F)cc2C(N)=O)c2ccccc12 (relative stereo)

Solution:
["> 8.00", "6.00 to 7.00"]

// for each molecule in input: emit pIC50
1. COc1cccc(-c2cncc(Nc3nc(N[C@@H]4CCCC[C@@H]4N)c(F)cc3C(N)=O)c2)c1 (relative stereo)
2. NC(=O)c1cc(F)c(NC2CCCCC2N)nc1Nc1ccnc(-c2ccc(F)cc2F)c1 (stereo not drawn)
3. CC[C@H](N)[C@@H](CC)Nc1nc(Nc2ccc3cnn(C)c3c2)c(C(N)=O)cc1F
4. CCC[C@@H](Nc1nc(Nc2cncc(-c3ccc(OC)cc3F)c2)c(C(N)=O)cc1F)[C@H](C)N
5. Cc1ccc(Nc2nc(NC[C@H](C)N)c(F)cc2C(N)=O)cn1
6. COc1cc(Nc2nc(Nc3ccncc3)c(F)cc2C(N)=O)cc(OC)c1
7. CC[C@H](N)[C@@H](CC)Nc1nc(Nc2ccc3c(cnn3C)c2)c(C(N)=O)cc1F
8. NC(=O)c1cc(F)c(N[C@@H]2CCCC[C@@H]2N)nc1Nc1ccnc(-n2cccn2)c1 (relative stereo)

Solution:
1. > 8.00
2. > 8.00
3. 7.00 to 7.30
4. > 8.00
5. 6.00 to 7.00
6. 6.00 to 7.00
7. > 8.00
8. 7.30 to 8.00

Recorded result, NC(=O)c1cc(F)c(N[C@@H]2CCCC[C@@H]2N)nc1Nc1cc(C(F)(F)F)cc2[nH]ccc12 (relative stereo) , pIC50: > 8.00
